Below, each entry is listed with its recorded % degradation in 24 h when incubated with liver microsomes.
ASSAY: Stability in liver microsomes
Format: in vitro ADME, human
STATED_CONDITIONS: 2 μM, 37° C., 24 h
Where a SMILES comes first, the peptide text is derived from it. [ ]: non-standard residue; d: D form. ξ: configuration not given here. ξαMeBip(2'-Et,4'-OMe) = CCc1cc(OC)ccc1-c1ccc(CC(C)(N)C(=O)O)cc1; ξBip(2'-Et-4'-OMe) = CCc1cc(OC)ccc1-c1ccc(CC(N)C(=O)O)cc1; ξαMe(hhPhe) = CC(N)(CCCc1ccccc1)C(=O)O; ξαMePhe(2-F) = CC(N)(Cc1ccccc1F)C(=O)O; ξhhPhe = NC(CCCc1ccccc1)C(=O)O; ξαMeD = CC(N)(CC(=O)O)C(=O)O; ξαMeS = CC(N)(CO)C(=O)O
READOUT_KIND: % degradation in 24 h when incubated with liver microsomes (%)

compound="CCc1cc(OC)ccc1-c1ccc(CC(NC(=O)C(C)(CC(=O)O)NC(=O)C(C)(CO)NC(=O)[C@@H](NC(=O)[C@H](Cc2ccccc2)NC(=O)[C@@H](NC(=O)CNC(=O)[C@H](CCC(=O)O)NC(=O)[C@H](C)NC(=O)[C@H](Cc2c[nH]cn2)NC(=O)[C@@H](N)C(C)C)[C@@H](C)O)[C@@H](C)O)C(=O)NC(C)(CCCc2ccccc2)C(N)=O)cc1 (some centres unmarked) [compound 112] (H-VHAEGTFT[ξαMeS][ξαMeD][ξBip(2'-Et-4'-OMe)][ξαMe(hhPhe)]-NH2)" observed_result=100
compound="CCc1cc(OC)ccc1-c1ccc(CC(C)(NC(=O)[C@H](CC(=O)O)NC(=O)C(C)(CO)NC(=O)[C@@H](NC(=O)[C@H](Cc2ccccc2)NC(=O)[C@@H](NC(=O)CNC(=O)[C@H](CCC(=O)O)NC(=O)[C@H](C)NC(=O)[C@H](Cc2c[nH]cn2)NC(=O)[C@@H](N)C(C)C)[C@@H](C)O)[C@@H](C)O)C(=O)NC(CCCc2ccccc2)C(N)=O)cc1 (some centres unmarked) [compound 38] (H-VHAEGTFT[ξαMeS]D[ξαMeBip(2'-Et,4'-OMe)][ξhhPhe]-NH2)" observed_result=31
compound="CCc1cc(OC)ccc1-c1ccc(CC(NC(=O)[C@H](CC(=O)O)NC(=O)[C@H](CO)NC(=O)[C@@H](NC(=O)[C@H](Cc2ccccc2)NC(=O)[C@@H](NC(=O)CNC(=O)[C@H](CCC(N)=O)NC(=O)[C@H](CO)NC(=O)[C@H](Cc2c[nH]cn2)NC(=O)[C@@H](N)C(C)C)[C@@H](C)O)[C@@H](C)O)C(=O)NC(C)(CCCc2ccccc2)C(N)=O)cc1 (some centres unmarked) [compound 81] (H-VHSQGTFTSD[ξBip(2'-Et-4'-OMe)][ξαMe(hhPhe)]-NH2)" observed_result=78
compound="CCc1cc(OC)ccc1-c1ccc(CC(C)(NC(=O)C(C)(CC(=O)O)NC(=O)[C@H](CO)NC(=O)[C@@H](NC(=O)C(C)(Cc2ccccc2F)NC(=O)[C@@H](NC(=O)CNC(=O)[C@H](CCC(=O)O)NC(=O)[C@H](CO)NC(=O)[C@H](Cc2c[nH]cn2)NC(=O)[C@@H](N)C(C)C)[C@@H](C)O)[C@@H](C)O)C(=O)NC(CCCc2ccccc2)C(N)=O)cc1 (some centres unmarked) [compound 69] (H-VHSEGT[ξαMePhe(2-F)]TS[ξαMeD][ξαMeBip(2'-Et,4'-OMe)][ξhhPhe]-NH2)" observed_result=80
compound="CCc1cc(OC)ccc1-c1ccc(CC(C)(NC(=O)[C@H](CC(=O)O)NC(=O)C(C)(CO)NC(=O)[C@@H](NC(=O)C(C)(Cc2ccccc2F)NC(=O)[C@@H](NC(=O)CNC(=O)[C@H](CCC(N)=O)NC(=O)[C@H](CO)NC(=O)[C@H](Cc2c[nH]cn2)NC(=O)[C@@H](N)C(C)C)[C@@H](C)O)[C@@H](C)O)C(=O)NC(C)(CCCc2ccccc2)C(N)=O)cc1 (some centres unmarked) [compound 165] (H-VHSQGT[ξαMePhe(2-F)]T[ξαMeS]D[ξαMeBip(2'-Et,4'-OMe)][ξαMe(hhPhe)]-NH2)" observed_result=100
